- Read-out: Monocyte Chemoattractant Protein-1 (MCP1), CCL2 (gene 6347)
- Experiment Description: BSK_SAg_MCP1: BioMAP Diversity Plus: SAg Assay for Monocyte Chemoattractant Protein-1 (MCP1) Biomarker Activity (AID 2283090)
- Run Conditions: primary human HUVEC with PBMC; actives raise or lower the signal
- Procedure: BSK_SAg is a cell-based, multiplexed-readout assay that uses umbilical vein endothelium and peripheral blood mononuclear cells, a human vascular primary cell co-culture, with measurements taken at 24 hours after chemical dosing in a 96-well plate.BSK_SAg_MCP1 is an assay component measured in the BSK_SAg assay. It measures MCP-1 antibody related to regulation of gene expression using ELISA technology.Data from the assay component BSK_SAg_MCP1 was analyzed into 1 assay endpoint. […]
Calls of active or inactive are those of the source. Rule for the calls: active = hit-call score of the fitted dose curve at least 0.9, where 1 is the maximum; inactive = score below 0.9.
Valid outcomes are listed here; reply with one: active, inactive

// below: answered compounds
O=C(O)C(F)(F)C(F)(F)OC(F)(F)F : inactive
NC(=O)C(F)(F)C(F)(F)C(F)(F)C(F)(F)F : inactive
CCCCCCC(C)OC(=O)CCCCC(=O)OC(C)CCCCCC (configuration not stated) : inactive
O=P(O)(O)OCCC(F)(F)C(F)(F)C(F)(F)C(F)(F)C(F)(F)C(F)(F)F : inactive
C=C(C)C(=O)OCCC(F)(F)C(F)(F)C(F)(F)C(F)(F)C(F)(C(F)(F)F)C(F)(F)F : inactive
CC(=O)Nc1ccc(N=Nc2cc(C)ccc2O)cc1 : inactive
CCCCOCCOCCOC(=O)CCCCC(=O)OCCOCCOCCCC : inactive
O=S(=O)(O)C(F)(F)C(F)(F)C(F)(F)C(F)(F)C(F)(F)C(F)(F)C(F)(F)F : inactive
FC1CC(F)(F)C(F)(F)C1(F)F (configuration not stated) : inactive
FC(F)(F)C(F)(F)C(F)(F)C(F)(F)C(F)(F)C(F)(F)CC1CO1 (configuration not stated) : inactive

q: Identify the outcome logged in this assay for the compound shown: CCCCCCCCC(F)(F)C(F)(F)C(F)(F)C(F)(F)C(F)(F)C(F)(F)F
a: inactive

q: Recorded test call requested for Nc1ccc([N+](=O)[O-])cc1O
a: inactive

q: State the result this test recorded for CCCCNc1ccccc1 .
a: inactive

* * *

- Experiment Description: ATG_AP_1_CIS: Attagene CIS-FACTORIAL HepG2 Assay for human Activator Protein 1 (AP-1) (AID 2282931)
- Run Conditions: HepG2 Attagene cis-factorial AP-1 reporter mRNA; actives raise or lower the signal
Calls of active or inactive are those of the source. How the source made its calls: active means hit-call score of the fitted dose curve at least 0.9, where 1 is the maximum; inactive means score below 0.9.
Assign a class; possible classes are true for active, false for inactive

Observe how each entry below is paired with its result.
CCCCC(CC)COP(=O)(O)OCC(CC)CCCC (configuration not stated) : true
COC(=O)C1CCC(C(=O)OC)CC1 (configuration not stated) : false
c1ccc(-c2ccccc2-c2ccccc2)cc1 : true
OCCCC(F)(F)C(F)(F)C(F)(F)F : false
C(=C(c1ccccc1)c1ccccc1)c1ccccc1 : true
O=C(O)C(F)(F)C(F)(F)C(F)F : false

q: // outcome(item) with item = C#C[C@]1(O)CC[C@H]2[C@@H]3CCc4cc(OC)ccc4[C@H]3CC[C@@]21C
a: false

q: I would be grateful if you could indicate the recorded call for CCCCCCCCC(F)(F)C(F)(F)C(F)(F)C(F)(F)C(F)(F)C(F)(F)F .
a: false

q: Called result for O=S(=O)(O)c1ccc2ccccc2c1
a: false

q: Just curious, what result did FC(F)(Br)C(F)(F)C(F)(F)C(F)(F)C(F)(F)C(F)(F)Br get here?
a: false

q: For CCCCCCCOC(=O)c1ccccc1C(=O)OCCCCCCC , which call appears in the assay record?
a: false

q: Field: outcome | Entry: COC(=O)CCC(F)(F)C(F)(F)C(F)(F)C(F)(F)F
a: false

* * *

- Study System: Bile acid receptor (Homo sapiens)
- Experiment Description: ATG_FXR_TRANS: Attagene TRANS-FACTORIAL HepG2 Assay for Farnesoid X Receptor (FXR) (AID 2282979);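 note: hits raise reporter mRNA above DMSO so AC50 marks FXR activation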
- Run Conditions: HepG2 Attagene TRANS FXR-GAL4 reporter transcription
Results filed as inconclusive are left out. The source made the active and inactive calls. How the source made its calls: active means hit-call score of the fitted dose curve at least 0.9, where 1 is the maximum; inconclusive means response in the unintended direction; inactive means score below 0.9.
Experimental Readout: outcome

Consider the worked cases shown below.
CNC(=S)NC : inactive
CO[Si](OC)(c1ccccc1)c1ccccc1 : inactive
O=C(O)C(F)(F)C(F)(F)C(F)(F)C(F)(F)C(F)(F)C(F)(F)C(F)(F)C(F)(F)C(F)(F)C(F)(F)C(F)(F)C(F)(F)F : inactive
FC(F)(F)C(F)(F)C(F)(F)C(F)(F)C(F)(F)C(F)(F)CCS : inactive
CCCCCCCCC(F)(F)C(F)(F)C(F)(F)C(F)(F)C(F)(F)C(F)(F)F : inactive
C=CC(F)(F)C(F)(F)C(F)(F)C(F)(F)C(F)(F)C(F)(F)C(F)(F)C(F)(F)C=C : inactive
FC(F)(F)C(F)(F)C(F)(F)C(F)(F)C(F)(F)C(F)(F)C(F)(F)C(F)(F)F : inactive
CC(C)OC(=O)c1ccccc1C(=O)OC(C)C : inactive
N=C(N)C(F)(F)C(F)(F)C(F)(F)C(F)(F)C(F)(F)C(F)(F)C(F)(F)F : inactive
O=P(O)(O)OCCC(F)(F)C(F)(F)C(F)(F)C(F)(F)C(F)(F)C(F)(F)F : inactive

// outcome (Bile acid receptor (Homo sapiens)) for Nc1cc(Cl)c(N)c(Cl)c1 = inactive

Case CC(Cc1ccc(O)c(O)c1)C(C)Cc1ccc(O)c(O)c1 (stereo not given) , Bile acid receptor (Homo sapiens), outcome recorded as inactive

Considering O=C(O)C(F)(F)C(F)(F)C(F)F , its outcome with Bile acid receptor (Homo sapiens) was recorded as inactive

The recorded outcome with Bile acid receptor (Homo sapiens) for COC(=O)C1CCC(C(=O)OC)CC1 (stereo not given) was inactive

* * *

- Read-out: Thrombomodulin, THBD (gene 7056)
- Experiment Description: BSK_LPS_Thrombomodulin: BioMAP Diversity Plus: LPS Assay for Thrombomodulin Biomarker Activity (AID 2284296)
- Run Conditions: primary human HUVEC with PBMC
Calls of active or inactive are those of the source. Rule for the calls: active = hit-call score of the fitted dose curve at least 0.9, where 1 is the maximum; inactive = score below 0.9.
Experimental Readout: outcome

OCCCC(F)(F)C(F)(F)C(F)(F)F : inactive
FC(F)(F)C(F)(F)C(F)(F)C(F)(F)C(F)(F)C(F)(F)CCS : inactive
FC(F)(F)C(F)(F)C(F)(F)C(F)(F)C(F)(F)C(F)(F)C(F)(F)C(F)(F)CCS : inactive
OCC(F)(F)C(F)(F)C(F)(F)C(F)F : inactive
FC(F)(F)C(F)(F)C(F)(F)N(C(F)(F)C(F)(F)C(F)(F)F)C(F)(F)C(F)(F)C(F)(F)F : inactive

For the next question, use this compound.
Form: compound = OCC(F)(F)C(F)(F)C(F)(F)C(F)(F)C(F)(F)C(F)(F)F ; outcome = inactive

* * *

- Experiment Description: BSK_BT_Bcell_Proliferation: Viability Assessment in the BioMAP Diversity Plus: BT Assay for B cell Proliferation (AID 2284227)
- Run Conditions: primary human B cells with PBMC
The source made the active and inactive calls. Rule for the calls: active = hit-call score of the fitted dose curve at least 0.9, where 1 is the maximum; inactive = score below 0.9.
Pick one and only one: active, inactive

Worked set:
CCCCCCC(C)OC(=O)CCCCC(=O)OC(C)CCCCCC (configuration not stated) : inactive
OCCCC(F)(F)C(F)(F)C(F)(F)F : inactive

q: Tell me the assay call for CC(CCl)OP(=O)(OC(C)CCl)OC(C)CCl (configuration not stated) please.
a: inactive

q: // return assay outcome for C=CC(=O)OCC(F)(F)C(F)(F)C(F)(F)C(F)(F)C(F)(F)C(F)(F)C(F)(F)F
a: inactive

q: Write down the call the test reported for this molecule. Item: O=S(=O)(OCC(F)F)C(F)(F)F
a: inactive

q: What classification did FC1CC(F)(F)C(F)(F)C1(F)F (configuration not stated) end up with in this test?
a: inactive

q: Could you please tell me the result logged for O=S(=O)(OCCOC(F)(F)F)C(F)(F)F in this assay?
a: inactive

q: Could you check what this test reported for CCc1ccc(C(c2ccc(CC)cc2)C(Cl)Cl)cc1 ?
a: active

q: Any idea what this test logged for O[Si](c1ccccc1)(c1ccccc1)c1ccccc1 ?
a: active

q: Entry FC(F)(F)C(F)(F)C(F)(F)C(F)(F)C(F)(F)C(F)(F)CCS : call = ?
a: inactive

q: Please share the test call associated with C=C(C)C(=O)OCC(F)(F)C(F)(F)C(F)(F)C(F)(F)C(F)(F)C(F)(F)C(F)(F)F .
a: inactive

q: Hey, what did the test say about FC(F)(Br)C(F)(F)C(F)(F)C(F)(F)C(F)(F)C(F)(F)Br ?
a: inactive

* * *

- Read-out: Collagen III, COL3A1 (gene 1281)
- Experiment Description: BSK_hDFCGF_CollagenIII: BioMAP Diversity Plus: hDFCGF Assay for Collagen III Biomarker Activity (AID 2283056)
- Run Conditions: primary human foreskin fibroblasts; actives raise or lower the signal
- Protocol: BSK_hDFCGF is a cell-based, multiplexed-readout assay that uses foreskin fibroblast, a human skin primary cell, with measurements taken at 24 hours after chemical dosing in a 96-well plate.BSK_hDFCGF_CollagenIII is an assay component measured in the BSK_hDFCGF assay. It measures Collagen antibody related to regulation of gene expression using ELISA technology.Data from the assay component BSK_hDFCGF_CollagenIII was analyzed into 1 assay endpoint. […]
Activity calls are given as the source filed them. Rule for the calls: active = hit-call score of the fitted dose curve at least 0.9, where 1 is the maximum; inactive = score below 0.9.
Give your call using only these classes: active, inactive

CS(C)(=O)=O : inactive
O=C(O)C(F)(OC(F)(F)C(F)(OC(F)(F)C(F)(F)C(F)(F)F)C(F)(F)F)C(F)(F)F (configuration not stated) : inactive
O=C(O)C(F)(F)C(F)(F)C(F)(F)C(F)(F)F : inactive
FC(F)(F)C(F)(F)C(F)(F)N(C(F)(F)C(F)(F)C(F)(F)F)C(F)(F)C(F)(F)C(F)(F)F : inactive
CCc1ccc(C(c2ccc(CC)cc2)C(Cl)Cl)cc1 : active

q: Which outcome did this test record for the molecule O=C(O)C(F)(F)C(F)(F)C(F)F ?
a: inactive

q: How was CCCCCCCOC(=O)c1ccccc1C(=O)OCCCCCCC classified in this test?
a: inactive

q: Record request — test call for O=C(CC(=O)C(F)(F)C(F)(F)F)C(F)(F)F
a: inactive

q: // return assay outcome for O=C(O)C=C(C(F)(F)F)C(F)(F)F
a: inactive

q: Hello, I am checking results. What call was entered for CCc1c(Br)c(Br)c(Br)c(Br)c1Br ?
a: inactive

q: What classification did FC(F)(F)C(F)(F)C(F)(F)CI end up with in this test?
a: inactive

q: Status in this test for O=C(O)C(F)(F)C(F)(F)OC(F)(F)F ?
a: inactive

Each recorded value in this set is attributed to PubChem BioAssay (EPA / NIEHS).
